Source listed as ChEMBL document CHEMBL4321792.

Experiment: Toxicity in po dosed C57BL/6 mouse administered as single dose via gavage measured up to 7 days
Type: organism-based
Conditions: in vivo
QUANTITY KIND: MTD at 168 h

[[record]]
chemical_string = "COc1ncc(-c2cc(OCC3(C)COC3)c3ncnc(C)c3c2)cc1NS(=O)(=O)c1ccc(F)cc1F"
result = "> 30 mg/kg"


* * *

Experiment: Antifibrotic activity against mouse Mlg2908 cells assessed as reduction in cell viability measured after 72 hrs by MTT assay
Format: functional, cell-based
Checkbox rule: IC50 lower than 0.03 µM = True; IC50 not lower than 0.03 µM = False.

[[record]]
chemical_string = "COc1ncc(-c2cc(OC3CCCCC3)c3ncnc(C)c3c2)cc1NS(=O)(=O)c1ccc(F)cc1F"
class_name = "False"

[[record]]
chemical_string = "COc1ncc(-c2cc(OCCN3CCCC3)c3ncnc(C)c3c2)cc1NS(=O)(=O)c1ccc(F)cc1F"
class_name = "False"

[[record]]
chemical_string = "COc1ncc(-c2cc(OCCN3CCOCC3)c3ncnc(C)c3c2)cc1NS(=O)(=O)c1ccc(F)cc1F"
class_name = "False"

[[record]]
chemical_string = "C[C@H](Nc1ncnc2nc[nH]c12)c1cc2cccc(Cl)c2c(=O)n1-c1ccccc1"
class_name = "False"

[[record]]
chemical_string = "COc1ncc(-c2cc(O[C@@H]3CCOC3)c3ncnc(C)c3c2)cc1NS(=O)(=O)c1ccc(F)cc1F"
class_name = "True"

[[record]]
chemical_string = "COc1ncc(-c2cc(OCCN(C)C)c3ncnc(C)c3c2)cc1NS(=O)(=O)c1ccc(F)cc1F"
class_name = "False"

[[record]]
chemical_string = "COc1ncc(-c2cc(OC(C)C)c3ncnc(C)c3c2)cc1NS(=O)(=O)c1ccc(F)cc1F"
class_name = "True"

[[record]]
chemical_string = "COc1ncc(-c2cc(OCC3CCOCC3)c3ncnc(C)c3c2)cc1NS(=O)(=O)c1ccc(F)cc1F"
class_name = "True"

[[record]]
chemical_string = "COc1ncc(-c2cc(OC3CCC3)c3ncnc(C)c3c2)cc1NS(=O)(=O)c1ccc(F)cc1F"
class_name = "True"


* * *

Entries and their Papp A→B at 1.5 h
Test: Apparent permeability across apical to basolateral side in human Caco2 cells measured after 90 mins by LC-MS/MS analysis
Settings: Caco-2
QUANTITY KIND: Papp A→B at 1.5 h (×10⁻⁶ cm/s)

[[record]]
molecule = "COc1ncc(-c2cc(OC)c3ncnc(C)c3c2)cc1NS(=O)(=O)c1ccc(F)cc1F"
measured_number = 35

[[record]]
molecule = "COc1ncc(-c2cc(OCC3CCN(C)CC3)c3ncnc(C)c3c2)cc1NS(=O)(=O)c1ccc(F)cc1F"
measured_number = 8.8

[[record]]
molecule = "COc1ccc(-c2cc(OC3CCOCC3)c3ncnc(C)c3c2)cn1"
measured_number = 39

[[record]]
molecule = "COc1ncc(-c2cc(OCC3(C)COC3)c3ncnc(C)c3c2)cc1NS(=O)(=O)c1ccc(F)cc1F"
measured_number = 46

[[record]]
molecule = "COc1ncc(-c2cc(O[C@@H]3CCOC3)c3ncnc(C)c3c2)cc1NS(=O)(=O)c1ccc(F)cc1F"
measured_number = 38

[[record]]
molecule = "COc1ncc(-c2cc(OC3CCCC3)c3ncnc(C)c3c2)cc1NS(=O)(=O)c1ccc(F)cc1F"
measured_number = 28

[[record]]
molecule = "COc1ncc(-c2cc(OC(F)F)c3ncnc(C)c3c2)cc1NS(=O)(=O)c1ccc(F)cc1F"
measured_number = 34

[[record]]
molecule = "COc1ncc(-c2cc(OCCN3CCCC3)c3ncnc(C)c3c2)cc1NS(=O)(=O)c1ccc(F)cc1F"
measured_number = 7.5

[[record]]
molecule = "COc1ncc(-c2cc(OC3CCOC(C)(C)C3)c3ncnc(C)c3c2)cc1NS(=O)(=O)c1ccc(F)cc1F (centres undefined)"
measured_number = 31

[[record]]
molecule = "COc1ncc(-c2cc(OCC3CC3)c3ncnc(C)c3c2)cc1NS(=O)(=O)c1ccc(F)cc1F"
measured_number = 30

[[record]]
molecule = "COc1ncc(-c2cc(OCC3CCOC3)c3ncnc(C)c3c2)cc1NS(=O)(=O)c1ccc(F)cc1F (centres undefined)"
measured_number = 34

[[record]]
molecule = "COc1ncc(-c2cc(OCCN(C)C)c3ncnc(C)c3c2)cc1NS(=O)(=O)c1ccc(F)cc1F"
measured_number = 10

[[record]]
molecule = "COc1ncc(-c2cc(OC3CCN(C)CC3)c3ncnc(C)c3c2)cc1NS(=O)(=O)c1ccc(F)cc1F"
measured_number = 4.5

[[record]]
molecule = "COc1ncc(-c2cc(OCC3CCOCC3)c3ncnc(C)c3c2)cc1NS(=O)(=O)c1ccc(F)cc1F"
measured_number = 31

[[record]]
molecule = "COc1ncc(-c2cc(OC(C)C)c3ncnc(C)c3c2)cc1NS(=O)(=O)c1ccc(F)cc1F"
measured_number = 32

[[record]]
molecule = "COc1ncc(-c2cc(OC3CCCCC3)c3ncnc(C)c3c2)cc1NS(=O)(=O)c1ccc(F)cc1F"
measured_number = 16

[[record]]
molecule = "COc1ncc(-c2cc(OC3CCOCC3)c3ncnc(C)c3c2)cc1NS(=O)(=O)c1ccc(F)cc1F"
measured_number = 42

[[record]]
molecule = "COc1ncc(-c2cc(OCCN3CCOCC3)c3ncnc(C)c3c2)cc1NS(=O)(=O)c1ccc(F)cc1F"
measured_number = 13

[[record]]
molecule = "COc1ncc(-c2cc(OC3CCC3)c3ncnc(C)c3c2)cc1NS(=O)(=O)c1ccc(F)cc1F"
measured_number = 44


* * *

The entries below are paired with their reported AUC(0-inf).
Assay: AUC (0 to infinity) in ICR mouse at 0.5 mg/kg, iv by LC-MS/SM analysis
Assay type: ADME, organism-based
Parameters: dose 0.5 mg/kg, time infinity, route intravenous
Settings: in vivo
QUANTITY KIND: AUC(0-inf)

[[record]]
chemical_string = "COc1ncc(-c2cc(O[C@@H]3CCOC3)c3ncnc(C)c3c2)cc1NS(=O)(=O)c1ccc(F)cc1F"
quantity_kind = "AUC(0-inf)"
result = "520 ng·h/mL"

[[record]]
chemical_string = "COc1ncc(-c2cc(OC3CCOCC3)c3ncnc(C)c3c2)cc1NS(=O)(=O)c1ccc(F)cc1F"
quantity_kind = "AUC(0-inf)"
result = "1820 ng·h/mL"

[[record]]
chemical_string = "COc1ncc(-c2cc(OCC3(C)COC3)c3ncnc(C)c3c2)cc1NS(=O)(=O)c1ccc(F)cc1F"
quantity_kind = "AUC(0-inf)"
result = "651 ng·h/mL"


* * *

Experiment: Volume of distribution at steady state in ICR mouse at 0.5 mg/kg, iv by LC-MS/SM analysis
Type: ADME, organism-based
Conditions: in vivo, read-out: Vdss
QUANTITY KIND: Vd (L/kg)

[[record]]
chemical_string = "COc1ncc(-c2cc(O[C@@H]3CCOC3)c3ncnc(C)c3c2)cc1NS(=O)(=O)c1ccc(F)cc1F"
measured_number = 0.5

[[record]]
chemical_string = "COc1ncc(-c2cc(OCC3(C)COC3)c3ncnc(C)c3c2)cc1NS(=O)(=O)c1ccc(F)cc1F"
measured_number = 0.733

[[record]]
chemical_string = "COc1ncc(-c2cc(OC3CCOCC3)c3ncnc(C)c3c2)cc1NS(=O)(=O)c1ccc(F)cc1F"
measured_number = 0.368


* * *

This listing pairs compounds with measured Papp B→A at 1.5 h.
Test: Apparent permeability across basolateral to apical side in human Caco2 cells measured after 90 mins by LC-MS/MS analysis
Settings: Caco-2
QUANTITY KIND: Papp B→A at 1.5 h (nm/s)

[[record]]
compound = "COc1ncc(-c2cc(OCCN(C)C)c3ncnc(C)c3c2)cc1NS(=O)(=O)c1ccc(F)cc1F"
quantity_kind = "Papp B→A at 1.5 h"
measured_number = 510

[[record]]
compound = "COc1ncc(-c2cc(OCC3CCN(C)CC3)c3ncnc(C)c3c2)cc1NS(=O)(=O)c1ccc(F)cc1F"
quantity_kind = "Papp B→A at 1.5 h"
measured_number = 380

[[record]]
compound = "COc1ncc(-c2cc(OC)c3ncnc(C)c3c2)cc1NS(=O)(=O)c1ccc(F)cc1F"
quantity_kind = "Papp B→A at 1.5 h"
measured_number = 310

[[record]]
compound = "COc1ccc(-c2cc(OC3CCOCC3)c3ncnc(C)c3c2)cn1"
quantity_kind = "Papp B→A at 1.5 h"
measured_number = 310

[[record]]
compound = "COc1ncc(-c2cc(OCCN3CCCC3)c3ncnc(C)c3c2)cc1NS(=O)(=O)c1ccc(F)cc1F"
quantity_kind = "Papp B→A at 1.5 h"
measured_number = 380

[[record]]
compound = "COc1ncc(-c2cc(OC3CCOC(C)(C)C3)c3ncnc(C)c3c2)cc1NS(=O)(=O)c1ccc(F)cc1F (stereo unspecified)"
quantity_kind = "Papp B→A at 1.5 h"
measured_number = 220

[[record]]
compound = "COc1ncc(-c2cc(OC3CCCCC3)c3ncnc(C)c3c2)cc1NS(=O)(=O)c1ccc(F)cc1F"
quantity_kind = "Papp B→A at 1.5 h"
measured_number = 210

[[record]]
compound = "COc1ncc(-c2cc(OC3CCOCC3)c3ncnc(C)c3c2)cc1NS(=O)(=O)c1ccc(F)cc1F"
quantity_kind = "Papp B→A at 1.5 h"
measured_number = 390

[[record]]
compound = "COc1ncc(-c2cc(OCC3CCOC3)c3ncnc(C)c3c2)cc1NS(=O)(=O)c1ccc(F)cc1F (stereo unspecified)"
quantity_kind = "Papp B→A at 1.5 h"
measured_number = 390

[[record]]
compound = "COc1ncc(-c2cc(OC3CCN(C)CC3)c3ncnc(C)c3c2)cc1NS(=O)(=O)c1ccc(F)cc1F"
quantity_kind = "Papp B→A at 1.5 h"
measured_number = 460

[[record]]
compound = "COc1ncc(-c2cc(OCCN3CCOCC3)c3ncnc(C)c3c2)cc1NS(=O)(=O)c1ccc(F)cc1F"
quantity_kind = "Papp B→A at 1.5 h"
measured_number = 330

